Taken from the METLIN SMRT retention time set (Domingo-Almenara et al. 2019).

# reported RP-LC retention time; entries follow
test protocol: gradient 5% acetonitrile 3 min, to 50% in 2 min, to 85% in 15 min, held 3 min, 100 µL/min
conditions used: column: Zorbax Extend-C18 2.1 x 50 mm; eluents: water / acetonitrile, 0.1% formic acid
Just the number in s, nothing appended.

| compound | observation type | measured |
| --- | --- | --- |
| Cc1cc2nn(CC(=O)Nc3cccc(F)c3)c(=O)n2c(Nc2ccc(F)cc2)n1 | RP-LC retention time | 981 |
| CC(C)CN1CCC(N2CC(COc3ccccc3)C3(CCOCC3)C2)CC1 (stereo not given) | RP-LC retention time | 574 |
| Cc1ccc(-c2cc(C(N)=O)c3ccccc3n2)cc1 | RP-LC retention time | 784 |
| COc1ccc(-c2c(C)noc2NC(C)=O)cc1S(=O)(=O)Nc1cccc(C#N)c1 | RP-LC retention time | 708 |
| CCOC(=O)c1c(C)c(CCC(=O)NCCN2CCOCC2)c(C)n1C | RP-LC retention time | 622 |

Look up RP-LC retention time: COc1ccc(OCC(=O)N2CCN(c3cc(C)n4cnnc4n3)CC2)cc1 593

What do we get for COc1ccc(CNC(=O)N(Cc2ccsc2)CC(F)(F)F)cc1OC ? 812

What do we get for O=C(c1ccco1)N1CCC2(CC1)NCCc1c2[nH]c2ccccc12 ? 631

What do we get for O=C(c1ccncn1)N1C[C@@H](COCC2CC2)[C@H](c2ccccn2)C1 ? 604

What do we get for O=C(Cc1cccs1)NCCOc1ccc(F)cc1 ? 766

What do we get for CCC1CN2C=Nc3oc(C)c(C(=O)Nc4ccc(F)cc4Br)c3C2=N1 (stereo not given) ? 682

What do we get for Cc1nc(-c2ccc(NC(=O)N3CCN(c4ccccn4)CC3)cc2)no1 ? 588

What do we get for COCCNc1oc(-c2ccc([N+](=O)[O-])cc2)nc1C#N ? 766

What do we get for O=C1c2ccccc2C(=O)c2[nH]cnc21 ? 661

What do we get for O=C(NCc1cccnc1-c1ccccc1)c1cccc(Br)c1 ? 692

----------
# reported RP-LC retention time; entries follow
test protocol: gradient 5% acetonitrile 3 min, to 50% in 2 min, to 85% in 15 min, held 3 min, 100 µL/min
conditions used: column: Zorbax Extend-C18 2.1 x 50 mm; eluents: water / acetonitrile, 0.1% formic acid
Just the number in s, nothing appended.

Worked cases, answers included:
| compound | RP-LC retention time, s |
| --- | --- |
| Cc1ccc(C(=O)N2CCN(c3nnc4cccc(C)n34)CC2)cc1C | 705 |
| COc1cc(C(CC(=O)N2CCCCCC2)N2Cc3ccccc3C2=O)cc(OC)c1OC (stereo not given) | 797 |
| Cc1noc(C)c1S(=O)(=O)N1CCC(c2noc(-c3ccccc3)n2)C1 (stereo not given) | 1010 |
| CC(C)CC(NC(=O)c1ccc(F)cc1)C(=O)Nc1nc2ccccc2[nH]1 (stereo not given) | 746 |
| Cc1ccc(CNC(=O)C(=O)NCC(c2ccc3c(c2)CCCN3C)N2CCCC2)cc1 (stereo not given) | 746 |
| Cc1ccc2c(c1)C1CC(C)(O2)N(c2cccc(C(=O)N3CCN(c4ccccn4)CC3)c2)C(=O)N1 (stereo not given) | 625 |

Look up RP-LC retention time: Cc1ccc(S(=O)(=O)N2CCc3c(c(-c4nnc(-c5ccccc5F)o4)nn3C)C2)cc1 955

What do we get for O=C(NCCc1ccccc1)c1ccc2c(cnn2CC(=O)N2CCCCCC2)c1 ? 791

What do we get for COc1cc2nc(C(=O)N3CCCCC3)cc(Nc3ccc(F)c(Cl)c3)c2cc1OC ? 735

What do we get for CN(C)C(=O)CN1C(=O)COc2ccc(C(=O)N3CCN(c4ccc(F)cc4)CC3)cc21 ? 715

What do we get for Cc1noc(C)c1S(=O)(=O)N1CCC(Cn2c(C)cnc2-c2ccccc2)C1 (stereo not given) ? 658

What do we get for O=C1CC(CNS(=O)(=O)c2cccc(C(F)(F)F)c2)CN1c1ccc(Cl)cc1 (stereo not given) ? 893

What do we get for Cc1noc2ncn(CC(=O)NCCc3ccccc3Cl)c(=O)c12 ? 792

What do we get for Cc1nn(CC(=O)NCCN2CCOCC2)c(=O)c2nc(-c3ccccc3)sc12 ? 610

What do we get for CCS(=O)(=O)Nc1ccc(C2(C(=O)NCc3cccs3)CCCCC2)cc1 ? 913

What do we get for CCS(=O)(=O)Nc1ccc(C2(C(=O)NCC3CCCO3)CCCCC2)cc1 (stereo not given) ? 781

What do we get for CCc1noc(NC(C)=O)c1-c1ccc(OC)c(S(=O)(=O)Nc2c(C)cccc2C)c1 ? 790

What do we get for CCCNC(=O)C1CCCN(c2ccc(SCC(=O)Nc3ccccc3C(F)(F)F)nn2)C1 (stereo not given) ? 690

What do we get for COc1ccc(CNC(=O)C2CCCN2S(=O)(=O)c2cc3c(cc2Cl)NC(=O)CO3)cc1 (stereo not given) ? 745

What do we get for CCC(C)NS(=O)(=O)c1cc(-c2nc(C)cs2)n(CC(=O)N2CCCCC2)c1 (stereo not given) ? 920

What do we get for CCCn1cc(C(=O)N2CCCc3ccccc32)c2nn(-c3ccccc3)c(=O)c-2c1 ? 836

What do we get for CC(C)CNc1nc(-c2ccc([N+](=O)[O-])cc2)nc2ccccc12 ? 821
